Entry source: the supplement of paper PMC9588786

Below, each entry is listed alongside its reported relative cell viability.
- System: HT-1080;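 note: viability read as CCK-8 absorbance at 450 nm in cells co-exposed to the GPX4 inhibitor RSL3, relative to a 0.01% DMSO vehicle control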
- assay_name: relative cell viability with RSL3 co-treatment (fraction of control); higher = stronger protection from RSL3-induced ferroptosis (higher viability)
- experimental_context: 10 µM
Output: the number by itself.

Reference set (8 entries):
- compound: "Cc1cc(Nc2nc(N[C@@H](C)c3ccc(F)cc3)c(C#N)cc2F)n[nH]1"
  relative cell viability: 0.29
- compound: "C#Cc1cccc(Nc2ncnc3cc4c(cc23)OCCOCCOCCO4)c1 [Icotinib]"
  relative cell viability: 0.64
- compound: "O=C(NC[C@H](O)CO)c1ccncc1Nc1ccc(I)cc1F"
  relative cell viability: 0.803
- compound: "CCNC(=O)Nc1ccc(-c2nc3c(c(N4CCOC[C@@H]4C)n2)CCN(C2COC2)C3)cc1"
  relative cell viability: 0.503
- compound: "Cc1c(Cn2c(C)nc3c(C(=O)O)cc(N4CCOCC4)cc32)cccc1C(F)(F)F"
  relative cell viability: 0.823
- compound: "COc1cc2nccc(Oc3ccc(NC(=O)Nc4cc(C)on4)c(Cl)c3)c2cc1OC [Tivozanib (AV-951)]"
  relative cell viability: 0.23
- compound: "CCS(=O)(=O)Nc1ccc2c(c1)/C(=C(/Nc1ccc(CN3CCCCC3)cc1)c1ccccc1)C(=O)N2 [Hesperadin]"
  relative cell viability: 0.293
- compound: "O=C1NC(=O)[C@@H](c2cn3c4c(cccc24)CCC3)[C@@H]1c1c[nH]c2ccccc12 [Tivantinib (ARQ 197)]"
  relative cell viability: 0.64

Next up:
Problem: # relative cell viability lookup, item `Cc1cc(Nc2cc(CN3CCOCC3)c3nc(C)c(Cc4ccc(Cl)cc4F)n3n2)n[nH]1`
Solution: 0.383
